- Experimental Target: JAK1 (Homo sapiens)
- Sequence (P23458 whole entry): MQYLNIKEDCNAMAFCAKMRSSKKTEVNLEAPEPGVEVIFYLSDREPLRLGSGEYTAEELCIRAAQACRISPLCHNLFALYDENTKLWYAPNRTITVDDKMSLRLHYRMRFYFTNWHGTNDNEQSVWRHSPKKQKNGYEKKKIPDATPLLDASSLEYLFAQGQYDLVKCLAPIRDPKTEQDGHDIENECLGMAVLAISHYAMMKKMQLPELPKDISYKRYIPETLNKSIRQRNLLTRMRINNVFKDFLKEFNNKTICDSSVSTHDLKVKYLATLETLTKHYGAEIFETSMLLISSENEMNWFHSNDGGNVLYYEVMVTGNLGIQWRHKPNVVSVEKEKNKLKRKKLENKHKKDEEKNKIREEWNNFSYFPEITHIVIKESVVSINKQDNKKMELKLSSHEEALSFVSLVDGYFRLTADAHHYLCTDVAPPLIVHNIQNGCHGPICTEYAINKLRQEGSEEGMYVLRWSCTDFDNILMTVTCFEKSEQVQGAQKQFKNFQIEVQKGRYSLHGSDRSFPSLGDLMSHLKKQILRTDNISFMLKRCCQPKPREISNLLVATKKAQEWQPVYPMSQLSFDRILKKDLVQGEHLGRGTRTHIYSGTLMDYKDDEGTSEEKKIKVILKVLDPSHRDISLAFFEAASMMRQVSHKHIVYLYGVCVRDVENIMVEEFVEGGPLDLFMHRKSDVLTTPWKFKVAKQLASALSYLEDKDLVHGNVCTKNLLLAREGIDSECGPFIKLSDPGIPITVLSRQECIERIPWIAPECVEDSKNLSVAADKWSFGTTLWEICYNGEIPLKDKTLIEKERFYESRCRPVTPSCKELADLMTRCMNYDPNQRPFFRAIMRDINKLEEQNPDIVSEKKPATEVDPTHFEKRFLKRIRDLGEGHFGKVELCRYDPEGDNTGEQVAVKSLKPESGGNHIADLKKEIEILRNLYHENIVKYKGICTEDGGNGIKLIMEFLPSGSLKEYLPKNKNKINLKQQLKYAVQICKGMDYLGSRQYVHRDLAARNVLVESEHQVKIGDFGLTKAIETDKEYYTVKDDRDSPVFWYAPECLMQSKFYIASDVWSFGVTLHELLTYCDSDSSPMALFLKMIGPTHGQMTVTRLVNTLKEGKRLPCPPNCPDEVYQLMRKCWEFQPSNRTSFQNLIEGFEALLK
- Test Protocol: JAK kinase inhibition assay (EZ Reader, peptide substrate phosphorylation) - JAK1
- Assay type: biochemical
- Setup Conditions: JAK1 kinase 20 nM; 8 concentration points, max 10 μM
Field: IC50. Provide a value for each of the compounds that follow.

[in] // query IC50 value for entry Cn1cc(Nc2nccc(-c3ccc(NC(=O)C4CC4(F)F)c4cc[nH]c34)n2)cn1 (stereo not drawn)
[out] 1 to 10 µM

[in] // query IC50 value for entry "CC(=O)N1CCN(Cc2ccc(-c3ccnc(Nc4cnn(C)c4)n3)cc2)CC1"
[out] ≥ 10 µM

[in] // query IC50 value for entry "Cc1cc(-c2ccnc(Nc3cnn(C)c3)n2)ccc1C(=O)NCC(F)(F)F"
[out] 0.1 to 1 µM

[in] // query IC50 value for entry "Cn1cc(Nc2nccc(-c3ccc(C(=O)NCC#N)nc3)n2)cn1"
[out] 0.1 to 1 µM

[in] // query IC50 value for entry "Cn1cc(Nc2nccc(-c3ccc(NC(=O)C4(F)CC4)nc3)n2)cn1"
[out] 0.1 to 1 µM

[in] // query IC50 value for entry "Cn1cc(Nc2nccc(-c3ccc(NC(=O)C4(C)CC4)nc3)n2)cn1"
[out] 1 to 10 µM

[in] // query IC50 value for entry "Cn1cc(Nc2nccc(-c3ccc(C(=O)N4CCS(=O)(=O)CC4)nc3)n2)cn1"
[out] 1 to 10 µM

[in] // query IC50 value for entry "Cn1cc(Nc2nccc(-c3ccc(NC(=O)CC4CC4)c4cc[nH]c34)n2)cn1"
[out] 1 to 10 µM

[in] // query IC50 value for entry "Cn1cc(Nc2nccc(-c3ccc(NC(=O)C4CC4)cc3)n2)cn1"
[out] < 0.1 µM

[in] // query IC50 value for entry "Cn1cc(Nc2nccc(-c3ccc(C(=O)NC4CC4)nc3)n2)cn1"
[out] 1 to 10 µM

[in] // query IC50 value for entry "Cn1cc(Nc2nccc(-c3ccc(CNCC(F)(F)F)cc3)n2)cn1"
[out] 0.1 to 1 µM

[in] // query IC50 value for entry "CCS(=O)(=O)Nc1ccc(-c2ccnc(Nc3cnn(C)c3)n2)cn1"
[out] 1 to 10 µM

Origin of the recorded values: patent US20240174648A1
